- TEST: soluble fraction after stress (log2 fold change); higher = more stays soluble; pooled small domains, quantitative proteomics
- STUDY CONDITIONS: stress: pH 4
TEST READOUT: soluble fraction (log2)

[
  {
    "QUERY SEQUENCE": "HMVAGHLQEKKGYFYMVLTYRDHEGKRKSKWLPTGLTIKGNKKRAQDLLQDARKNFVPDIPT",
    "TEST READOUT": "soluble fraction (log2)",
    "INEQUALITY SYMBOL": "≥",
    "MEAS VALUE": 0.43
  },
  {
    "QUERY SEQUENCE": "HMNPSPYLRRHLSGDWGDLDEDDRRSNDAALASGEARLLSSYQVDPDLKLWIITEWDRSVTTLLLPSE",
    "TEST READOUT": "soluble fraction (log2)",
    "INEQUALITY SYMBOL": "≥",
    "MEAS VALUE": 0.43
  },
  {
    "QUERY SEQUENCE": "HMGQVPPLTRRETEIARLVSRGLSNKEIASTLVISPRTAEGHVEHILDKLGFSSRTQIATWLNEQTRNGK",
    "TEST READOUT": "soluble fraction (log2)",
    "INEQUALITY SYMBOL": "=",
    "MEAS VALUE": 0.313
  },
  {
    "QUERY SEQUENCE": "HMANSREIPKLAGIEQEEAVKQLLDLDLKPVIEEITDDDTDAGDVVRTDPAAGEHVAVDTEITVFISIG",
    "TEST READOUT": "soluble fraction (log2)",
    "INEQUALITY SYMBOL": "=",
    "MEAS VALUE": -0.192
  },
  {
    "QUERY SEQUENCE": "HMYIKYETVLQNITERIAALRKNGTLVLDGERTLAAEFDASRGTIRKAMRQLEENGTILREGYVTRILPE",
    "TEST READOUT": "soluble fraction (log2)",
    "INEQUALITY SYMBOL": "=",
    "MEAS VALUE": -0.299
  }
]
